Values from patent US20210181109A1

# assay: NAL depletion percent, HPLC-fluorescence detection
# condition: single substance, test substance solution 1 mmol/L, fluorescence method
Collected NAL depletion (%) values appear next to each entry.
Numbers only here, please. The scale is %.

Completed entries (count: 8):
>  <compound>
O=C1OC(=O)c2ccccc21 [Phthalic anhydride]

>  <readout_value>
92.6

$$$$
>  <compound>
Oc1cccc(O)c1

>  <readout_value>
1.6

$$$$
>  <compound>
O=c1[nH]sc2ccccc12

>  <readout_value>
0.2

$$$$
>  <compound>
CNc1ccc(O)cc1.CNc1ccc(O)cc1.O=S(=O)(O)O

>  <readout_value>
15.9

$$$$
>  <compound>
C=CC(=O)OCC [Ethyl acrylate]

>  <readout_value>
10.6

$$$$
>  <compound>
CCCCCCCCC(=O)Cl [Nonanoyl chloride]

>  <readout_value>
54.5

$$$$
>  <compound>
CC(C=O)Cc1ccc(C(C)C)cc1 (stereo not shown)

>  <readout_value>
0.0

$$$$
>  <compound>
O=CCc1ccccc1

>  <readout_value>
96.2

$$$$

Req: What value of measured NAL depletion (%) is listed for `CCC(=O)C=Cc1ccc(OC)cc1` ?
Resp: 0.4

Req: Would you mind telling me what NAL depletion (%) value was observed for O=C(OCc1ccccc1)c1ccccc1 [Benzyl benzoate] ?
Resp: 0.3

Req: Report NAL depletion (%) for `CC(C)(C)C(=O)CC(=O)C(C)(C)C` please.
Resp: 0.0

Req: Would you kindly share the measured NAL depletion (%) for CC(C=O)c1ccccc1 (stereo not shown) ?
Resp: 7.3

###

# assay: NAC depletion percent, HPLC-fluorescence detection
# condition: single substance, test substance solution 1 mmol/L, fluorescence method
Recorded NAC depletion (%) values for a group of compounds are listed next.
The reply should contain only the number, in %.

Solved entries:
>  <compound>
Oc1cccc(O)c1 [Resorcinol]

>  <NAC depletion (%)>
0.8

$$$$
>  <compound>
O=CC=O [Glyoxal]

>  <NAC depletion (%)>
24.9

$$$$
>  <compound>
CC(=O)C=Cc1ccccc1 [Benzylideneacetone]

>  <NAC depletion (%)>
67.3

$$$$
>  <compound>
C=CC(=O)OCC [Ethyl acrylate]

>  <NAC depletion (%)>
88.7

$$$$

Req: Query (compound): Sc1nc2ccccc2s1 [2-Mercaptobenzothiazole] ; field requested: NAC depletion (%)
Resp: 65.5

Req: Tell me the measured NAC depletion (%) of CC(C=O)Cc1ccc(C(C)(C)C)cc1 (stereo not shown) [Lilial] , please.
Resp: 18.0

Req: // NAC depletion (%) lookup, key: CC(C=O)Cc1ccc(C(C)C)cc1 (stereo not shown) [Cyclamen aldehyde]
Resp: 12.2

###

# assay: NAC depletion percent, HPLC-fluorescence detection
# condition: single substance, test substance solution 1 mmol/L, fluorescence method
# Method: 1) To a 50 mL vessel, 11.6 mg (±0.1 mg) of NAC is weighed; to this, a 25 mL measuring pipet is used to add 20 mL of 100 mmol/L phosphate buffer (pH: 8.0); and the content is gently stirred using a test tube mixer to achieve dissolution (2 mmol/L). 2) To a 500 mL vessel, 149.5 mL of this buffer is added using a 50 mL measuring pipet; to this, 0.5 mL of the above-described 2 mmol/L NAC solution is added; and the content is mixed by inversion to achieve 300-fold dilution (6.667 μmon). […]
property: NAC depletion (%)
Could you give me the number in %? Just the number is fine.

# count of solved cases: 3
>  <compound>
C=C(C)C1CC=C(C=O)CC1 (centres unmarked)

>  <unit>
%

>  <readout_value>
42.4

$$$$
>  <compound>
O=C(OCc1ccccc1)c1ccccc1 [Benzyl benzoate]

>  <unit>
%

>  <readout_value>
0.0

$$$$
>  <compound>
CCCCCCC(C=O)=Cc1ccccc1

>  <unit>
%

>  <readout_value>
0.0

$$$$

Req: Value lookup for NAC depletion (%); key = `CC(C)=CCCC(C)=CCCC(C)=CC=O`
Resp: 22.4
